Test system: Klebsiella pneumoniae
experiment-description: Antimicrobial activity against ESBL-positive Klebsiella pneumoniae 50748 harboring porin OmpK36 gene by Etest
Format: functional
Listing: MIC of selected compounds
Respond numerically; units are µg/mL and should not be typed.

>>> print(df.to_string())
                                   compound      system_under_test  readout_number
0  CO[C@@]1(NC(=O)Cc2cccs2)C(=O)N2C(C(=O)O)=C(COC(N)=O)CS[C@@H]21 [CEFOXITIN]  Klebsiella pneumoniae               6

Next item in the queue.
Input: What reported MIC corresponds to C[C@@H](O)[C@H]1C(=O)N2C(C(=O)O)=C(SCCNC=N)C[C@H]12 [IMIPENEM ANHYDROUS] on Klebsiella pneumoniae?
Output: 0.25

====

Tested on: Klebsiella pneumoniae
experiment-description: Antimicrobial activity against ESBL-negative Klebsiella pneumoniae 299332 harboring porin OmpK36 gene by Etest
Format: functional
Each item that follows carries a reported MIC.
API: value field is a number in µg/mL; no unit string.

Example compounds with recorded MIC:
>>> print(df.to_string())
                                   compound      system_under_test  readout  readout_number
0  C[C@H]1[C@H](NC(=O)/C(=N\OC(C)(C)C(=O)O)c2csc(N)n2)C(=O)N1S(=O)(=O)O  Klebsiella pneumoniae      MIC            0.25
1  C[C@@H](O)[C@H]1C(=O)N2C(C(=O)O)=C(SCCNC=N)C[C@H]12 [IMIPENEM ANHYDROUS]  Klebsiella pneumoniae      MIC            0.25
2  C[C@@H](O)[C@H]1C(=O)N2C(C(=O)O)=C(S[C@@H]3CN[C@H](C(=O)N(C)C)C3)[C@H](C)[C@H]12  Klebsiella pneumoniae      MIC           0.032
3  CO[C@@]1(NC(=O)Cc2cccs2)C(=O)N2C(C(=O)O)=C(COC(N)=O)CS[C@@H]21  Klebsiella pneumoniae      MIC               4

# evaluate next
Input: So what's the measured MIC for this one? `CO/N=C(\C(=O)N[C@@H]1C(=O)N2C(C(=O)O)=C(COC(C)=O)CS[C@H]12)c1csc(N)n1`
Output: 0.125

====

Test system: Klebsiella pneumoniae
experiment-description: Antimicrobial activity against ESBL-positive Klebsiella pneumoniae 26077 harboring porin OmpK36V mutant gene by Etest
Format: functional
Measured MIC values are reported for all entries that follow.

Observe how each entry below is paired with its result.
>>> print(df.to_string())
                                   molecule       result
0  C[C@H]1[C@H](NC(=O)/C(=N\OC(C)(C)C(=O)O)c2csc(N)n2)C(=O)N1S(=O)(=O)O [AZTREONAM]  > 256 µg/mL
1  C[C@@H](O)[C@H]1C(=O)N2C(C(=O)O)=C(S[C@@H]3CN[C@H](C(=O)N(C)C)C3)[C@H](C)[C@H]12 [MEROPENEM]      1 µg/mL
2  C[C@@H](O)[C@H]1C(=O)N2C(C(=O)O)=C(SCCNC=N)C[C@H]12 [IMIPENEM ANHYDROUS]   0.19 µg/mL
3  CC(C)(O/N=C(\C(=O)N[C@@H]1C(=O)N2C(C(=O)[O-])=C(C[n+]3ccccc3)CS[C@H]12)c1csc(N)n1)C(=O)O [CEFTAZIDIME]   > 32 µg/mL
4  CO/N=C(\C(=O)N[C@@H]1C(=O)N2C(C(=O)[O-])=C(C[N+]3(C)CCCC3)CS[C@H]12)c1csc(N)n1 [CEFEPIME]  > 256 µg/mL

Input: Quick one: MIC of CO[C@@]1(NC(=O)Cc2cccs2)C(=O)N2C(C(=O)O)=C(COC(N)=O)CS[C@@H]21 [CEFOXITIN] ?
Output: 128 µg/mL

Input: Give its MIC value. Item: CO/N=C(\C(=O)N[C@@H]1C(=O)N2C(C(=O)O)=C(COC(C)=O)CS[C@H]12)c1csc(N)n1 [CEFOTAXIME]
Output: > 32 µg/mL

====

Test system: Klebsiella pneumoniae
experiment-description: Antimicrobial activity against ESBL-positive Klebsiella pneumoniae 17049 harboring porin OmpK36V mutant gene by Etest
Assay type: functional
MIC by entry:

Reference set (3 entries):
In [3]: df
Out[3]:
                                   compound      system_under_test  readout       result
0  CO/N=C(\C(=O)N[C@@H]1C(=O)N2C(C(=O)[O-])=C(C[N+]3(C)CCCC3)CS[C@H]12)c1csc(N)n1 [CEFEPIME]  Klebsiella pneumoniae      MIC  > 256 µg/mL
1  CC(C)(O/N=C(\C(=O)N[C@@H]1C(=O)N2C(C(=O)[O-])=C(C[n+]3ccccc3)CS[C@H]12)c1csc(N)n1)C(=O)O [CEFTAZIDIME]  Klebsiella pneumoniae      MIC   > 32 µg/mL
2  C[C@@H](O)[C@H]1C(=O)N2C(C(=O)O)=C(SCCNC=N)C[C@H]12 [IMIPENEM ANHYDROUS]  Klebsiella pneumoniae      MIC   0.25 µg/mL

Input: Requested read-out: MIC. Entry: CO[C@@]1(NC(=O)Cc2cccs2)C(=O)N2C(C(=O)O)=C(COC(N)=O)CS[C@@H]21 [CEFOXITIN]
Output: > 256 µg/mL

Input: Look up MIC for this compound: C[C@@H](O)[C@H]1C(=O)N2C(C(=O)O)=C(S[C@@H]3CN[C@H](C(=O)N(C)C)C3)[C@H](C)[C@H]12 [MEROPENEM]
Output: 2 µg/mL

Input: I'd like to know its MIC. The compound in question is C[C@H]1[C@H](NC(=O)/C(=N\OC(C)(C)C(=O)O)c2csc(N)n2)C(=O)N1S(=O)(=O)O [AZTREONAM]
Output: > 256 µg/mL

Input: Sample CO/N=C(\C(=O)N[C@@H]1C(=O)N2C(C(=O)O)=C(COC(C)=O)CS[C@H]12)c1csc(N)n1 [CEFOTAXIME] — what was its MIC?
Output: > 32 µg/mL

====

System: Klebsiella pneumoniae
experiment-description: Antimicrobial activity against ESBL-positive Klebsiella pneumoniae 71697 harboring porin OmpK36V mutant gene by Etest
Format: functional
readout: MIC (µg/mL)
// return numeric value only (unit: µg/mL, not printed)

A selection of reference data follows.
>>> df
                                   compound      system_under_test  readout  units_of_measure  readout_number
0  C[C@@H](O)[C@H]1C(=O)N2C(C(=O)O)=C(SCCNC=N)C[C@H]12 [IMIPENEM ANHYDROUS]  Klebsiella pneumoniae      MIC             µg/mL            0.19
1  CO[C@@]1(NC(=O)Cc2cccs2)C(=O)N2C(C(=O)O)=C(COC(N)=O)CS[C@@H]21  Klebsiella pneumoniae      MIC             µg/mL             128

// below: MIC requested for another compound
Input: Fill blank: measured MIC of the compound `C[C@@H](O)[C@H]1C(=O)N2C(C(=O)O)=C(S[C@@H]3CN[C@H](C(=O)N(C)C)C3)[C@H](C)[C@H]12` is ____.
Output: 1.5

====

Test system: Klebsiella pneumoniae
experiment-description: Antimicrobial activity against ESBL-positive Klebsiella pneumoniae 25008 by Etest
Type: functional
Parameter MIC: see the listing below.

# annotated cases, reported MIC shown
>>> print(df.to_string())
                                   molecule      system_under_test       result
0  C[C@H]1[C@H](NC(=O)/C(=N\OC(C)(C)C(=O)O)c2csc(N)n2)C(=O)N1S(=O)(=O)O  Klebsiella pneumoniae  > 256 µg/mL
1  C[C@@H](O)[C@H]1C(=O)N2C(C(=O)O)=C(S[C@@H]3CN[C@H](C(=O)N(C)C)C3)[C@H](C)[C@H]12  Klebsiella pneumoniae      4 µg/mL
2  CC(C)(O/N=C(\C(=O)N[C@@H]1C(=O)N2C(C(=O)[O-])=C(C[n+]3ccccc3)CS[C@H]12)c1csc(N)n1)C(=O)O  Klebsiella pneumoniae   > 32 µg/mL
3  CO/N=C(\C(=O)N[C@@H]1C(=O)N2C(C(=O)[O-])=C(C[N+]3(C)CCCC3)CS[C@H]12)c1csc(N)n1 [CEFEPIME]  Klebsiella pneumoniae  > 256 µg/mL
4  CO/N=C(\C(=O)N[C@@H]1C(=O)N2C(C(=O)O)=C(COC(C)=O)CS[C@H]12)c1csc(N)n1  Klebsiella pneumoniae   > 32 µg/mL
5  CO[C@@]1(NC(=O)Cc2cccs2)C(=O)N2C(C(=O)O)=C(COC(N)=O)CS[C@@H]21  Klebsiella pneumoniae     64 µg/mL

# input for lookup
Input: // query MIC value for entry C[C@@H](O)[C@H]1C(=O)N2C(C(=O)O)=C(SCCNC=N)C[C@H]12 [IMIPENEM ANHYDROUS]
Output: 1 µg/mL
